These measurements were taken from patent US10501426B1.

- System: S. epidermidis S2
- Procedure Details: Antibiotic susceptibility testing, Vitek System; note: key: S = susceptible; R = Resistant; I = intermediate
- Format: cell-based, Staphylococcus epidermidis
Experimental Readout: susceptibility to standard antibiotics

Reference set, count: 6
1. C[C@@H]1O[C@@H]1P(=O)(O)O [Fosfomycin]; S
2. C[C@H]1COc2c(N3CCN(C)CC3)c(F)cc3c(=O)c(C(=O)O)cn1c23 [Levofloxacin]; R
3. CCCCCCCCCC(=O)N[C@@H](Cc1c[nH]c2ccccc12)C(=O)N[C@H](CC(N)=O)C(=O)N[C@@H](CC(=O)O)C(=O)N[C@@H]1C(=O)NCC(=O)N[C@@H](CCCN)C(=O)N[C@@H](CC(=O)O)C(=O)N[C@H](C)C(=O)N[C@@H](CC(=O)O)C(=O)NCC(=O)N[C@H](CO)C(=O)N[C@@H]([C@H](C)CC(=O)O)C(=O)N[C@@H](CC(=O)c2ccccc2N)C(=O)O[C@@H]1C [Daptomycin]; R
4. CN[C@H](CC(C)C)C(=O)N[C@H]1C(=O)N[C@@H](CC(N)=O)C(=O)N[C@H]2C(=O)N[C@H]3C(=O)N[C@H](C(=O)N[C@H](C(=O)O)c4cc(O)cc(O)c4-c4cc3ccc4O)[C@H](O)c3ccc(c(Cl)c3)Oc3cc2cc(c3O[C@@H]2O[C@H](CO)[C@@H](O)[C@H](O)[C@H]2O[C@H]2C[C@](C)(N)[C@H](O)[C@H](C)O2)Oc2ccc(cc2Cl)[C@H]1O [Vancomycin]; R
5. CC(=O)NC[C@H]1CN(c2ccc(N3CCOCC3)c(F)c2)C(=O)O1 [Linezolid]; R
6. Cc1onc(-c2ccccc2)c1C(=O)N[C@@H]1C(=O)N2[C@@H]1SC(C)(C)[C@@H]2C(=O)O [Oxacillin]; R

Now for another entry.
Ask: What reported susceptibility to standard antibiotics corresponds to COc1c(N2C[C@@H]3CCCN[C@@H]3C2)c(F)cc2c(=O)c(C(=O)O)cn(C3CC3)c12 [Moxifloxacin] on S. epidermidis S2?
Reply: R

###

- System: S. epidermidis S3
- Procedure Details: Antibiotic susceptibility testing, Vitek System; note: key: S = susceptible; R = Resistant; I = intermediate
- Format: cell-based, Staphylococcus epidermidis
Experimental Readout: susceptibility to standard antibiotics

Reference set, count: 8
1) CCCCCCCCCC(=O)N[C@@H](Cc1c[nH]c2ccccc12)C(=O)N[C@H](CC(N)=O)C(=O)N[C@@H](CC(=O)O)C(=O)N[C@@H]1C(=O)NCC(=O)N[C@@H](CCCN)C(=O)N[C@@H](CC(=O)O)C(=O)N[C@H](C)C(=O)N[C@@H](CC(=O)O)C(=O)NCC(=O)N[C@H](CO)C(=O)N[C@@H]([C@H](C)CC(=O)O)C(=O)N[C@@H](CC(=O)c2ccccc2N)C(=O)O[C@@H]1C; R
2) CO[C@H]1/C=C/O[C@@]2(C)Oc3c(C)c(O)c4c(O)c(c(/C=N/N5CCN(C)CC5)c(O)c4c3C2=O)NC(=O)/C(C)=C\C=C\[C@H](C)[C@H](O)[C@@H](C)[C@@H](O)[C@@H](C)[C@H](OC(C)=O)[C@@H]1C; R
3) O=C(O)c1cn(C2CC2)c2cc(N3CCNCC3)c(F)cc2c1=O; R
4) CN(C)[C@@H]1C(O)=C(C(N)=O)C(=O)[C@@]2(O)C(O)=C3C(=O)c4c(O)cccc4[C@@](C)(O)[C@H]3C[C@@H]12; S
5) CC(=O)O[C@H]1C[C@@]2(C)[C@@H](C[C@@H](O)[C@H]3[C@@]4(C)CC[C@@H](O)[C@@H](C)[C@@H]4CC[C@@]32C)/C1=C(\CCC=C(C)C)C(=O)O; R
6) CN[C@H](CC(C)C)C(=O)N[C@H]1C(=O)N[C@@H](CC(N)=O)C(=O)N[C@H]2C(=O)N[C@H]3C(=O)N[C@H](C(=O)N[C@H](C(=O)O)c4cc(O)cc(O)c4-c4cc3ccc4O)[C@H](O)c3ccc(c(Cl)c3)Oc3cc2cc(c3O[C@@H]2O[C@H](CO)[C@@H](O)[C@H](O)[C@H]2O[C@H]2C[C@](C)(N)[C@H](O)[C@H](C)O2)Oc2ccc(cc2Cl)[C@H]1O; S
7) COc1c(N2C[C@@H]3CCCN[C@@H]3C2)c(F)cc2c(=O)c(C(=O)O)cn(C3CC3)c12; S
8) CC(=O)NC[C@H]1CN(c2ccc(N3CCOCC3)c(F)c2)C(=O)O1; R

Now for another entry.
Ask: // lookup susceptibility to standard antibiotics for CC[C@H]1OC(=O)[C@H](C)[C@@H](O[C@H]2C[C@@](C)(OC)[C@@H](O)[C@H](C)O2)[C@H](C)[C@@H](O[C@@H]2O[C@H](C)C[C@H](N(C)C)[C@H]2O)[C@](C)(O)C[C@@H](C)C(=O)[C@H](C)[C@@H](O)[C@]1(C)O
Reply: R

###

- System: S. epidermidis S3
- Procedure Details: Antibiotic susceptibility testing, Vitek System; note: key: S = susceptible; R = Resistant; I = intermediate
- Format: cell-based, Staphylococcus epidermidis
Experimental Readout: susceptibility to standard antibiotics

1) CCC[C@@H]1C[C@@H](C(=O)N[C@@H]([C@H]2O[C@H](SC)[C@H](O)[C@@H](O)[C@H]2O)[C@H](C)Cl)N(C)C1 [Clindamycin]; R
2) Cc1onc(-c2ccccc2)c1C(=O)N[C@@H]1C(=O)N2[C@@H]1SC(C)(C)[C@@H]2C(=O)O [Oxacillin]; R
3) C[C@@H](O)[C@H]1C(=O)N2C(C(=O)O)=C(SCCN=CN)C[C@H]12 [Lmipenem]; S
4) C[C@H]1COc2c(N3CCN(C)CC3)c(F)cc3c(=O)c(C(=O)O)cn1c23 [Levofloxacin]; S
5) C/C(=C\C(=O)OCCCCCCCCC(=O)O)C[C@@H]1OC[C@H](C[C@@H]2O[C@H]2[C@@H](C)[C@H](C)O)[C@@H](O)[C@H]1O [Mupirocin]; R

Now for another entry.
Ask: // lookup susceptibility to standard antibiotics for C[C@@H]1O[C@@H]1P(=O)(O)O [Fosfomycin]
Reply: S

###

- Test system: S. epidermidis S2
- Procedure Details: Antibiotic susceptibility testing, Vitek System; note: key: S = susceptible; R = Resistant; I = intermediate
- Type: cell-based, Staphylococcus epidermidis
Experimental Readout: susceptibility to standard antibiotics

Reference set, count: 5
1. O=C(O)c1cn(C2CC2)c2cc(N3CCNCC3)c(F)cc2c1=O; R
2. CCC[C@@H]1C[C@@H](C(=O)N[C@@H]([C@H]2O[C@H](SC)[C@H](O)[C@@H](O)[C@H]2O)[C@H](C)Cl)N(C)C1; R
3. C[C@@H](O)[C@H]1C(=O)N2C(C(=O)O)=C(SCCN=CN)C[C@H]12; S
4. CC[C@H]1OC(=O)[C@H](C)[C@@H](O[C@H]2C[C@@](C)(OC)[C@@H](O)[C@H](C)O2)[C@H](C)[C@@H](O[C@@H]2O[C@H](C)C[C@H](N(C)C)[C@H]2O)[C@](C)(O)C[C@@H](C)C(=O)[C@H](C)[C@@H](O)[C@]1(C)O; R
5. CC(=O)O[C@H]1C[C@@]2(C)[C@@H](C[C@@H](O)[C@H]3[C@@]4(C)CC[C@@H](O)[C@@H](C)[C@@H]4CC[C@@]32C)/C1=C(\CCC=C(C)C)C(=O)O; R

Ask: // lookup susceptibility to standard antibiotics for CO[C@H]1/C=C/O[C@@]2(C)Oc3c(C)c(O)c4c(O)c(c(/C=N/N5CCN(C)CC5)c(O)c4c3C2=O)NC(=O)/C(C)=C\C=C\[C@H](C)[C@H](O)[C@@H](C)[C@@H](O)[C@@H](C)[C@H](OC(C)=O)[C@@H]1C
Reply: R

Ask: // lookup susceptibility to standard antibiotics for CN(C)[C@@H]1C(O)=C(C(N)=O)C(=O)[C@@]2(O)C(O)=C3C(=O)c4c(O)cccc4[C@@](C)(O)[C@H]3C[C@@H]12
Reply: S

Ask: // lookup susceptibility to standard antibiotics for C/C(=C\C(=O)OCCCCCCCCC(=O)O)C[C@@H]1OC[C@H](C[C@@H]2O[C@H]2[C@@H](C)[C@H](C)O)[C@@H](O)[C@H]1O
Reply: R
